Tested Target: UniProt B4EH86
Sequence (B4EH86 entry or part of it): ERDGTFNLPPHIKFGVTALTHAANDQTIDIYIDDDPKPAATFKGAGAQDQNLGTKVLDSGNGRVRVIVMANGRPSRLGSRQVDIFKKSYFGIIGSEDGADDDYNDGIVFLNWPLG
Result Type: pKd
The value called pKd is obtained by taking minus log10 of the concentration in mol/L.

Qu. Recorded pKd for OC[C@H]1OC(O)[C@@H](O)[C@@H](O)[C@@H]1O (stereo partly drawn) [D-mannose] , please?
Ans. 4.75

Values from paper PMC9700728
